- Test system: EGFR Del19/T790M/C797S (H1975-clone #28)
- Assay name: EGFR degradation HTRF assay, H1975-clone #28 DTC cells
- Assay type: cell-based
- Test context: H1975 # 28 DTC cells; maximum percentage of inhibition (degradation)
Entry flag: 1 if Dmax (%) H1975 # 28 DTC reaches 80%; 0 if it does not.

Incoming: Given CCc1ccc2c(P(C)(C)=O)c(Nc3nc(Nc4cc(CC)c(N5CCC(N6CCN(C[C@H]7C[C@H](N(C)c8cc(F)c(C9CCC(=O)NC9=O)c(F)c8)C7)CC6)CC5)cc4OC)ncc3Br)ccc2n1 (stereo partly shown) [Example 691] , state whether its Dmax (%) H1975 # 28 DTC is at least 80%.
Outgoing: 0

Incoming: Given CCc1cc(Nc2ncc(Br)c(Nc3ccc4nc(C)ccc4c3P(C)(C)=O)n2)c(OC)cc1N1CCC(N2CCN(C(=O)[C@H]3CC[C@@H](Oc4cc(F)c(C5CCC(=O)NC5=O)c(F)c4)CC3)CC2)CC1 (stereo partly shown) [Example 681] , state whether its Dmax (%) H1975 # 28 DTC is at least 80%.
Outgoing: 0

Incoming: Given CCOc1cc(N2CCC(N3CCN(CCCc4cc(Cl)cc5c4oc(=O)n5C4CCC(=O)NC4=O)CC3)CC2)c(CC)cc1Nc1ncc(Br)c(Nc2ccc3nc(CC)ccc3c2P(C)(C)=O)n1 (stereo not shown) [Example 726] , state whether its Dmax (%) H1975 # 28 DTC is at least 80%.
Outgoing: 0

Incoming: Given CCc1cc(Nc2ncc(Br)c(Nc3ccc4nc(NC(=O)C5CC5)ccc4c3P(C)(C)=O)n2)c(OC)cc1N1CCC(N2CCN(C(=O)[C@@H]3CCN(c4cc(F)c([C@H]5CCC(=O)NC5=O)c(F)c4)C3)CC2)CC1 [Example 587] , state whether its Dmax (%) H1975 # 28 DTC is at least 80%.
Outgoing: 1

Incoming: Given CCOc1cc(N2CCC(N3CCN(CC4CN(c5cc(F)c(C6CCC(=O)NC6=O)c(F)c5)C4)CC3)CC2)c(CC)cc1Nc1ncc(Br)c(Nc2ccc3c(=O)n(C)ncc3c2P(C)(C)=O)n1 (stereo not shown) [Example 535] , state whether its Dmax (%) H1975 # 28 DTC is at least 80%.
Outgoing: 1

Incoming: Given CCOc1cc(N2CCC(N3CCN(C(=O)C4CN(c5cc(F)cc6c5n(C)c(=O)n6C5CCC(=O)NC5=O)C4)CC3)CC2)c(CC)cc1Nc1ncc(Br)c(Nc2ccc3nc(CC)ccc3c2P(C)(C)=O)n1 (stereo not shown) [Example 466] , state whether its Dmax (%) H1975 # 28 DTC is at least 80%.
Outgoing: 0

Incoming: Given CCOc1cc(N2CCC(N3CCN(CC4CCN(c5cccc6c5oc(=O)n6C5CCC(=O)NC5=O)CC4)CC3)CC2)c(CC)cc1Nc1ncc(Br)c(Nc2ccc3nc(CC)ccc3c2P(C)(C)=O)n1 (stereo not shown) [Example 581] , state whether its Dmax (%) H1975 # 28 DTC is at least 80%.
Outgoing: 0

Incoming: Given CCOc1cc(N2CCC(N3CCN(CCc4cc(F)c([C@H]5CCC(=O)NC5=O)c(F)c4)CC3)CC2)c(CC)cc1Nc1ncc(Br)c(Nc2ccc3nc(C)ncc3c2P(C)(C)=O)n1 [Example 738] , state whether its Dmax (%) H1975 # 28 DTC is at least 80%.
Outgoing: 1

Incoming: Given CCc1cc(Nc2ncc(Br)c(Nc3ccc4nc(NC5CC5)ccc4c3P(C)(C)=O)n2)c(OC)cc1N1CCC(N2CCN(CCc3ccc4c(c3)oc(=O)n4C3CCC(=O)NC3=O)CC2)CC1 (stereo not shown) [Example 633] , state whether its Dmax (%) H1975 # 28 DTC is at least 80%.
Outgoing: 0

Incoming: Given CCc1ccc2c(P(C)(C)=O)c(Nc3nc(Nc4cc(CC)c(N5CCC(N6CCN(CCc7cc(F)c([C@H]8CCC(=O)NC8=O)c(F)c7)CC6)CC5)cc4OC)ncc3Br)ccc2n1 [Example 484] , state whether its Dmax (%) H1975 # 28 DTC is at least 80%.
Outgoing: 1

Incoming: Given CCOc1cc(N2CCC(N3CCN(CCc4cc(F)c([C@H]5CCC(=O)NC5=O)c(F)c4)CC3)CC2)c(CC)cc1Nc1ncc(Br)c(Nc2cc(F)c3ncc(C)cc3c2P(C)(C)=O)n1 [Example 672] , state whether its Dmax (%) H1975 # 28 DTC is at least 80%.
Outgoing: 1

Incoming: Given CCOc1cc(N2CCC(N3CCN(CCc4cccc5c4n(CC)c(=O)n5C4CCC(=O)NC4=O)CC3)CC2)c(CC)cc1Nc1ncc(Br)c(Nc2ccc3nc(CC)ccc3c2P(C)(C)=O)n1 (stereo not shown) [Example 504] , state whether its Dmax (%) H1975 # 28 DTC is at least 80%.
Outgoing: 0

Incoming: Given CCOc1cc(N2CCC(N3CCN(CCc4cc5oc(=O)n(C6CCC(=O)NC6=O)c5cc4C)CC3)CC2)c(CC)cc1Nc1ncc(Br)c(Nc2ccc3nc(CC)ccc3c2P(C)(C)=O)n1 (stereo not shown) [Example 465] , state whether its Dmax (%) H1975 # 28 DTC is at least 80%.
Outgoing: 0

Incoming: Given CCOc1cc(N2CCC(N3CCN(CCc4cc5oc(=O)n(C6CCC(=O)NC6=O)c5cc4Cl)CC3)CC2)c(CC)cc1Nc1ncc(Br)c(Nc2ccc3c(=O)n(CC)ncc3c2P(C)(C)=O)n1 (stereo not shown) [Example 626] , state whether its Dmax (%) H1975 # 28 DTC is at least 80%.
Outgoing: 0

Incoming: Given CCOc1cc(N2CCC(N3CCN(CCCc4cc(F)c([C@H]5CCC(=O)NC5=O)c(F)c4)CC3)CC2)c(CC)cc1Nc1ncc(Br)c(Nc2cc(F)c3nc(CC)ccc3c2P(C)(C)=O)n1 [Example 567] , state whether its Dmax (%) H1975 # 28 DTC is at least 80%.
Outgoing: 0

Incoming: Given CCc1cc(Nc2ncc(Br)c(Nc3ccc4c(C)nccc4c3P(C)(C)=O)n2)c(OC)cc1N1CCC(N2CCN(CCc3cc(F)c([C@H]4CCC(=O)NC4=O)c(F)c3)CC2)CC1 [Example 684] , state whether its Dmax (%) H1975 # 28 DTC is at least 80%.
Outgoing: 1

* * *

- Subject of test: EGFR (HCC827 cells) (Homo sapiens, UniProt P00533, DEL746-750)
- Construct: endogenous in cells; host or cells: HCC827
- Sequence (P00533 with tags, fused parts or gaps DEL746-750): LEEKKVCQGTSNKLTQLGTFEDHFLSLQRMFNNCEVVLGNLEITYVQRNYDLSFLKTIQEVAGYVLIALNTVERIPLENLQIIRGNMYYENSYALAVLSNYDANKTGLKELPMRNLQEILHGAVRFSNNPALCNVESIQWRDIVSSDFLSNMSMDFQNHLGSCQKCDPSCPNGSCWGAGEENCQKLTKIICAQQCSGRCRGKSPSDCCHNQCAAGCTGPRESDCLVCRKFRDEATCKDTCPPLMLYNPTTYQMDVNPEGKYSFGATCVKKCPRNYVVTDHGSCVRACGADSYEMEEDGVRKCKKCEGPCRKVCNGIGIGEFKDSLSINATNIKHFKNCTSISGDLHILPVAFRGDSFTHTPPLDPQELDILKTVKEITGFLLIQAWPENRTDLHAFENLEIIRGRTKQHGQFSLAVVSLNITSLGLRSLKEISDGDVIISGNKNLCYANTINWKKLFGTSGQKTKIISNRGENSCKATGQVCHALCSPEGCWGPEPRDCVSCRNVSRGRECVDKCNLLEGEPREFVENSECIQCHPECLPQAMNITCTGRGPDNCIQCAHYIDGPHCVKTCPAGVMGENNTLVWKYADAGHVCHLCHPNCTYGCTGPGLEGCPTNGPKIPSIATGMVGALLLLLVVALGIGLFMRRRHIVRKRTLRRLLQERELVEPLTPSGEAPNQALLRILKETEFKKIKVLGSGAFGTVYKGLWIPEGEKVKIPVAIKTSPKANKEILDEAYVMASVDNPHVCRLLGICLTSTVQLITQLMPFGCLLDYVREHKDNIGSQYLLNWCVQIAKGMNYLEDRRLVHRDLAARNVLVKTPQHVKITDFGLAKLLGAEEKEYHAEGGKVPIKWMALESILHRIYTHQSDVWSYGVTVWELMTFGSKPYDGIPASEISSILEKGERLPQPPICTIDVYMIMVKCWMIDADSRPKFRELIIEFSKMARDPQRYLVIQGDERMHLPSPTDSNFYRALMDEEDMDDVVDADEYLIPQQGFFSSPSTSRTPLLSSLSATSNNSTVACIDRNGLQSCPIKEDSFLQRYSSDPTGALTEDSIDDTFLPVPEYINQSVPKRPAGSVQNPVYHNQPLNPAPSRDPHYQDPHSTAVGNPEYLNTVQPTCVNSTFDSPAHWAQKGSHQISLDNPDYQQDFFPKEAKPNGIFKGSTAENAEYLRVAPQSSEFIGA
- Assay name: EGFR degradation HTRF assay, HCC827 cells
- Format: cell-based
- Test context: HCC827, 16h treatment, maximum percentage of degradation
Record form. Attribute: Dmax. Fill in for each entry.
The reply should contain only the number, in %.

Incoming: Report Dmax for CCc1cc(Nc2ncc(Br)c(Nc3ccc4nccnc4c3P(C)(C)=O)n2)c(OC)cc1N1CCC(N2CCN(CCc3cc(F)c(C4CCC(=O)NC4=O)c(F)c3)CC2)CC1 (centres unmarked)
Outgoing: 86.4

Incoming: Report Dmax for COc1cc(N2CCC(N3CCN(CCC4CCN(c5ccc(N6CCC(=O)NC6=O)cc5)CC4)CC3)CC2)ccc1Nc1ncc(Cl)c(Nc2ccccc2NS(C)(=O)=O)n1
Outgoing: 75.7

Incoming: Report Dmax for CCc1cc(Nc2ncc(Br)c(Nc3ccc4nccnc4c3P(C)(C)=O)n2)c(OC)cc1N1CCC(N2CCN(C(=O)CC3CN(c4ccc5c(c4)C(=O)N(C4CCC(=O)NC4=O)C5=O)C3)CC2)CC1 (centres unmarked)
Outgoing: 78.5

Incoming: Report Dmax for CCc1cc(Nc2ncc(Br)c(Nc3ccc4nccnc4c3P(C)(C)=O)n2)c(OC)cc1N1CCC(N2CCN(C(=O)CCCCN3CCN(c4ccc5c(c4)C(=O)N(C4CCC(=O)NC4=O)C5=O)CC3)CC2)CC1 (centres unmarked)
Outgoing: 83.7

Incoming: Report Dmax for CCc1cc(Nc2ncc(Br)c(Nc3ccc4nccnc4c3P(C)(C)=O)n2)c(OC)cc1N1CCC(N2CCN(CCC3CCN(c4ccc(N5CCC(=O)NC5=O)cc4)CC3)CC2)CC1
Outgoing: 56.2

Incoming: Report Dmax for COc1cc(N2CCC(N(C)CCC3CCN(c4ccc(N5CCC(=O)NC5=O)cc4)CC3)CC2)c(C)cc1Nc1ncc(Br)c(Nc2ccc3nccnc3c2P(C)(C)=O)n1
Outgoing: 74.4

Incoming: Report Dmax for CCc1cc(Nc2ncc(Br)c(Nc3ccc4nccnc4c3P(C)(C)=O)n2)c(OC)cc1N1CCC(N2CCN(C(=O)C3CCN(c4ccc5c(c4)C(=O)N(C4CCC(=O)NC4=O)C5=O)CC3)CC2)CC1 (centres unmarked)
Outgoing: 76.7

Incoming: Report Dmax for COc1cc(N2CCN(CCc3ccc(C4CCC(=O)NC4=O)cc3)CC2)ccc1Nc1ncc(Cl)c(Nc2ccccc2N(C)S(C)(=O)=O)n1 (centres unmarked)
Outgoing: 78.2

Incoming: Report Dmax for CCc1cc(Nc2ncc(Br)c(Nc3ccc4nccnc4c3P(C)(C)=O)n2)c(OC)cc1N1CCC(N2CCN(CCC3CCN(c4ccc(C5CCC(=O)NC5=O)c(C#N)c4)CC3)CC2)CC1 (centres unmarked)
Outgoing: 80.8

Incoming: Report Dmax for COc1cc(N2CCC(N3CCN(CCc4ccc(NC5CCC(=O)NC5=O)cc4)CC3)CC2)ccc1Nc1ncc(Cl)c(Nc2ccccc2N(C)S(C)(=O)=O)n1 (centres unmarked)
Outgoing: 84

Incoming: Report Dmax for COc1cc(N2CCN(CCc3ccc(C4CCC(=O)NC4=O)cn3)CC2)c(C)cc1Nc1ncc(Br)c(Nc2ccc3nccnc3c2P(C)(C)=O)n1 (centres unmarked)
Outgoing: 86.2
